Data credit: ChEMBL document CHEMBL1142462

tested on: Mycobacterium tuberculosis; assay: Antimycobacterial activity against Mycobacterium tuberculosis H37Rv by microplate alamar blue assay; assay type: functional
Label TRUE when MIC is strictly below 10 µg/mL; otherwise label FALSE.

| compound | target-entity | assigned-category |
| --- | --- | --- |
| CC(C)[C@@H](C)CC[C@@H](C)[C@H]1CC[C@H]2[C@@H]3C(C=O)=C4C[C@@H](O)CC[C@]4(C)[C@H]3CC[C@]12C | Mycobacterium tuberculosis | TRUE |

Request: Dear colleague, could you confirm whether MIC of `CC(C)[C@@H](C)[C@]1(C)C[C@@H]1[C@@H](C)[C@H]1CC[C@H]2[C@@H]3CC=C4C[C@@H](O)CC[C@]4(C)[C@H]3CC[C@]12C` falls below 10 µg/mL? Thanks.
Response: FALSE

Request: Dear colleague, could you confirm whether MIC of `CC(C)CCC[C@@H](C)[C@H]1CC[C@H]2[C@@H]3C(C=O)=C4C[C@@H](O)CC[C@]4(C)[C@H]3CC[C@]12C` falls below 10 µg/mL? Thanks.
Response: FALSE

Request: Dear colleague, could you confirm whether MIC of CC(C)CCC[C@@H](C)[C@H]1CC[C@H]2[C@@H]3CC=C4C[C@@H](O)CC[C@]4(C)[C@H]3CC[C@]12C [CHOLESTEROL] falls below 10 µg/mL? Thanks.
Response: FALSE

Request: Dear colleague, could you confirm whether MIC of `CC(C)[C@@H](C)CC[C@@H](C)[C@H]1CC[C@H]2[C@@H]3CC=C4C[C@@H](O)CC[C@]4(C)[C@H]3CC[C@]12C` falls below 10 µg/mL? Thanks.
Response: FALSE

###

test system: Mycobacterium tuberculosis; test: Antimycobacterial activity against Mycobacterium tuberculosis H37Rv at 16 ug/mL by microplate alamar blue assay; type: functional
observed-property: inhibition at 16 µg/mL (%)
Dear colleague, please return just the value in %, with no unit written.

Examples with their reported inhibition at 16 µg/mL follow.
| compound | inhibition at 16 µg/mL / % |
| --- | --- |
| C=C(CC[C@@H](C)[C@H]1CC[C@H]2[C@@H]3C(C=O)=C4C[C@@H](O)CC[C@]4(C)[C@H]3CC[C@]12C)C(C)C [PARGUESTEROL A] | 105 |
| CC(C)CCC[C@@H](C)[C@H]1CC[C@H]2[C@@H]3C(C=O)=C4C[C@@H](O)CC[C@]4(C)[C@H]3CC[C@]12C | 96 |
| CCC(CC[C@@H](C)[C@H]1CC[C@H]2[C@@H]3CC=C4C[C@@H](O)CC[C@]4(C)[C@H]3CC[C@]12C)C(C)C (single isomer, unassigned) [BETA-SITOSTEROL] | 32 |

Request: Item under review: `C=C(CC[C@@H](C)[C@H]1CC[C@H]2[C@@H]3CC=C4C[C@@H](O)CC[C@]4(C)[C@H]3CC[C@]12C)C(C)C` . Reported inhibition at 16 µg/mL?
Response: 33

###

test system: Mycobacterium tuberculosis; assay: Antimycobacterial activity against Mycobacterium tuberculosis H37Rv at 2 ug/mL by microplate alamar blue assay; type: functional
observed-property: inhibition at 2 µg/mL (%)
Dear colleague, please return just the value in %, with no unit written.

Examples with their reported inhibition at 2 µg/mL follow.
| molecule | inhibition at 2 µg/mL / % |
| --- | --- |
| C=C(CC[C@@H](C)[C@H]1CC[C@H]2[C@@H]3C(C=O)=C4C[C@@H](O)CC[C@]4(C)[C@H]3CC[C@]12C)C(C)C | 52 |
| CCC(CC[C@@H](C)[C@H]1CC[C@H]2[C@@H]3CC=C4C[C@@H](O)CC[C@]4(C)[C@H]3CC[C@]12C)C(C)C (single isomer, unassigned) | -1 |
| CC(C)[C@@H](C)[C@]1(C)C[C@@H]1[C@@H](C)[C@H]1CC[C@H]2[C@@H]3C(C=O)=C4C[C@@H](O)CC[C@]4(C)[C@H]3CC[C@]12C | 17 |
| CC(C)[C@@H](C)CC[C@@H](C)[C@H]1CC[C@H]2[C@@H]3CC=C4C[C@@H](O)CC[C@]4(C)[C@H]3CC[C@]12C | 15 |
| CC[C@@H](CC[C@@H](C)[C@H]1CC[C@H]2[C@@H]3C(C=O)=C4C[C@@H](O)CC[C@]4(C)[C@H]3CC[C@]12C)C(C)C | 29 |

Request: Item under review: `CC(C)C(=O)CC[C@@H](C)[C@H]1CC[C@H]2[C@@H]3C(C=O)=C4C[C@@H](O)CC[C@]4(C)[C@H]3CC[C@]12C` . Reported inhibition at 2 µg/mL?
Response: 52

Request: Item under review: `CC(C)CCC[C@@H](C)[C@H]1CC[C@H]2[C@@H]3C(C=O)=C4C[C@@H](O)CC[C@]4(C)[C@H]3CC[C@]12C` . Reported inhibition at 2 µg/mL?
Response: 10

Request: Item under review: `CC(C)[C@@H](C)CC[C@@H](C)[C@H]1CC[C@H]2[C@@H]3C(C=O)=C4C[C@@H](O)CC[C@]4(C)[C@H]3CC[C@]12C` . Reported inhibition at 2 µg/mL?
Response: 39
